Tested on: PBMC
Test: Antiinflammatory activity in human PBMC assessed as inhibition of LPS-induced IL-8 expression pretreated 1 hr before LPS challenge followed by incubated for 16 hrs by flow cytometry
Type: functional, cell-based
assay.metric: log10 of IC50 (log10 of the value in µM)
Scale: log10; quantity: IC50; unit before log: µM

compound	value.reported
C[C@@H]1C[C@H]2[C@@H]3CCC4=CC(=O)C=C[C@]4(C)[C@@]3(F)[C@@H](O)C[C@]2(C)[C@@]1(O)C(=O)CO [DEXAMETHASONE]	-2.05
C[C@@]12CCC[C@@](C)(C(=O)O)[C@H]1CC[C@]13C=C(C(=O)O)[C@H](CC[C@H]12)C3	-2.52
C=C1C[C@@]23CC[C@H]4[C@@](C)(CCC[C@@]4(C)C(=O)O)[C@@H]2CC[C@@H]1C3 [KAURENOIC ACID]	0.89
C[C@]12CCC3=C(CC[C@@H]4[C@](C)(C(=O)O)CCC[C@@]34C)[C@H]1OC[C@@H]2O	-3.00

Shifting focus to the compound that follows.
Asked: I'd like to know its log10 of IC50. The compound in question is `COC(=O)[C@]1(C)CCC[C@@]2(C)[C@@H]3CC[C@@H]4C[C@]3(C=C4C=O)CC[C@@H]21`
Given back: -2.22
